Molecular target: AMPA receptor
Experiment: Binding of ^3 H-AMPA (displacement on rat cerebral membranes)
Conditions: rat cerebra membranes, pH 7.1, 60 minutes on ice
endpoint.name: Ki

INSERT INTO results (compound, endpoint_name, reported_result) VALUES
  ('O=C(O)CCc1nc2c3c([nH]c(=O)n2n1)-c1ccccc1CC3 [Example 11]', 'Ki', '1000 nM'),
  ('CCOC(=O)c1nc2c3c([nH]c(=O)n2n1)CC1CCCCC1C3 (stereo not shown) [Example 21]', 'Ki', '1700 nM'),
  ('O=C(NCc1ccccc1)c1nc2c3c([nH]c(=O)n2n1)CCCC3 [Example 3]', 'Ki', '1500 nM'),
  ('O=C(O)c1nc2c3c([nH]c(=O)n2n1)-c1ccccc1CC3 [Example 10]', 'Ki', '1700 nM');
